- Test system: morningglory
- method: Test A pre-/postemergence greenhouse test
- Assay type: in vivo, Ipomoea spp.
- measurement-conditions: Preemergence, 500 g ai/ha; 0 to 100 scale where 0 is no effect and 100 is complete control
result-type: Plant response rating, Morningglory

{"compound": "CC(Oc1c(C[S+]([O-])c2cccc[n+]2[O-])c(C(F)(F)F)nn1C)C(F)(F)F (centres unmarked) [Compound 77]", "target-or-test-system": "morningglory", "result-type": "Plant response rating, Morningglory", "readout-number": 100}
{"compound": "Cn1nc(C(F)(F)F)c(CS(=O)(=O)c2ccc(Cl)c[n+]2[O-])c1OC(F)F [Compound 7]", "target-or-test-system": "morningglory", "result-type": "Plant response rating, Morningglory", "readout-number": 30}
{"compound": "Cn1nc(C(F)(F)F)c(CS(=O)(=O)c2cccc[n+]2[O-])c1OCC(F)F [Compound 81]", "target-or-test-system": "morningglory", "result-type": "Plant response rating, Morningglory", "readout-number": 80}
{"compound": "Cn1nc(C(F)(F)C(F)(F)F)c(CS(=O)(=O)c2cccc[n+]2[O-])c1OCC(F)(F)F [Compound 84]", "target-or-test-system": "morningglory", "result-type": "Plant response rating, Morningglory", "readout-number": 90}
{"compound": "Cn1nc(C(F)(F)F)c(CS(=O)(=O)c2cccc[n+]2[O-])c1OCC(F)(F)F [Compound 29]", "target-or-test-system": "morningglory", "result-type": "Plant response rating, Morningglory", "readout-number": 80}
{"compound": "Cn1nc(C(F)(F)F)c(C[S+]([O-])c2cc(Cl)cc[n+]2[O-])c1OC(F)F (centres unmarked) [Compound 57]", "target-or-test-system": "morningglory", "result-type": "Plant response rating, Morningglory", "readout-number": 90}
{"compound": "CCn1nc(C(F)(F)F)c(C(C)S(=O)(=O)c2cccc[n+]2[O-])c1OCC(F)(F)F (centres unmarked) [Compound 69]", "target-or-test-system": "morningglory", "result-type": "Plant response rating, Morningglory", "readout-number": 100}
{"compound": "Cc1cc[n+]([O-])c(S(=O)(=O)Cc2c(C(F)(F)F)nn(C)c2OCC(F)F)c1 [Compound 94]", "target-or-test-system": "morningglory", "result-type": "Plant response rating, Morningglory", "readout-number": 100}
{"compound": "Cn1nc(C(F)(F)F)c(CS(=O)(=O)c2cc(C(C)(C)C)cc[n+]2[O-])c1OCC(F)(F)F [Compound 72]", "target-or-test-system": "morningglory", "result-type": "Plant response rating, Morningglory", "readout-number": 60}
{"compound": "Cn1nc(C(F)(F)F)c(C[S+]([O-])c2cc(Br)cc[n+]2[O-])c1Cl (racemic) [Compound 35]", "target-or-test-system": "morningglory", "result-type": "Plant response rating, Morningglory", "readout-number": 80}
{"compound": "Cn1nc(C(F)(F)F)c(CS(=O)(=O)c2ccc(Cl)c[n+]2[O-])c1OCC(F)(F)F [Compound 73]", "target-or-test-system": "morningglory", "result-type": "Plant response rating, Morningglory", "readout-number": 40}
{"compound": "CCn1nc(C(F)(F)F)c(C[S+]([O-])c2cc(C)cc[n+]2[O-])c1OCC(F)(F)F (racemic) [Compound 66]", "target-or-test-system": "morningglory", "result-type": "Plant response rating, Morningglory", "readout-number": 100}
{"compound": "Cn1nc(C(F)(F)F)c(CS(=O)(=O)c2cccc[n+]2[O-])c1Cl [Compound 9]", "target-or-test-system": "morningglory", "result-type": "Plant response rating, Morningglory", "readout-number": 70}
{"compound": "Cn1nc(C(F)(F)F)c(C[S+]([O-])c2cc(Cl)cc[n+]2[O-])c1Cl (racemic) [Compound 39]", "target-or-test-system": "morningglory", "result-type": "Plant response rating, Morningglory", "readout-number": 100}
{"compound": "Cc1cc[n+]([O-])c(S(=O)(=O)C(Cl)c2c(C(F)(F)F)nn(CC(F)(F)F)c2Cl)c1 (centres unmarked) [Compound 56]", "target-or-test-system": "morningglory", "result-type": "Plant response rating, Morningglory", "readout-number": 0}
{"compound": "CCn1nc(C(F)(F)F)c(CS(=O)(=O)c2cccc[n+]2[O-])c1OCC(F)(F)F [Compound 63]", "target-or-test-system": "morningglory", "result-type": "Plant response rating, Morningglory", "readout-number": 70}
{"compound": "CC(c1c(C(F)(F)F)nn(C)c1OC(F)F)S(=O)(=O)c1ccc(Br)c[n+]1[O-] (racemic) [Compound 23]", "target-or-test-system": "morningglory", "result-type": "Plant response rating, Morningglory", "readout-number": 0}
{"compound": "Cn1nc(C(F)(F)F)c(C(Cl)S(=O)(=O)c2cccc[n+]2[O-])c1OC(F)F (centres unmarked) [Compound 51]", "target-or-test-system": "morningglory", "result-type": "Plant response rating, Morningglory", "readout-number": 70}
{"compound": "C#CCOc1c(C[S+]([O-])c2cccc[n+]2[O-])c(C(F)(F)F)nn1C (centres unmarked) [Compound 76]", "target-or-test-system": "morningglory", "result-type": "Plant response rating, Morningglory", "readout-number": 90}
{"compound": "Cc1cc[n+]([O-])c([S+]([O-])Cc2c(C(F)(F)F)nn(CC(F)(F)F)c2Cl)c1 (centres unmarked) [Compound 48]", "target-or-test-system": "morningglory", "result-type": "Plant response rating, Morningglory", "readout-number": 80}
{"compound": "CC(c1c(C(F)(F)F)nn(CC(F)(F)F)c1Cl)[S+]([O-])c1cccc[n+]1[O-] (centres unmarked) [Compound 46]", "target-or-test-system": "morningglory", "result-type": "Plant response rating, Morningglory", "readout-number": 90}
{"compound": "Cn1nc(C(F)(F)F)c(CS(=O)(=O)c2cc(Cl)cc[n+]2[O-])c1Cl [Compound 38]", "target-or-test-system": "morningglory", "result-type": "Plant response rating, Morningglory", "readout-number": 0}
{"compound": "Cn1nc(C(F)(F)F)c(CS(=O)(=O)c2cc(Br)cc[n+]2[O-])c1Cl [Compound 32]", "target-or-test-system": "morningglory", "result-type": "Plant response rating, Morningglory", "readout-number": 0}
{"compound": "CC(c1c(C(F)(F)F)nn(C)c1OC(F)F)S(=O)(=O)c1cccc[n+]1[O-] (centres unmarked) [Compound 5]", "target-or-test-system": "morningglory", "result-type": "Plant response rating, Morningglory", "readout-number": 100}
{"compound": "Cc1cc[n+]([O-])c([S+]([O-])Cc2c(C(F)(F)F)nn(C)c2OC(C)C(F)(F)F)c1 (centres unmarked) [Compound 88]", "target-or-test-system": "morningglory", "result-type": "Plant response rating, Morningglory", "readout-number": 90}
{"compound": "Cc1cc[n+]([O-])c(S(=O)(=O)Cc2c(C(F)(F)F)nn(C)c2OCC(F)(F)C(F)(F)F)c1 [Compound 98]", "target-or-test-system": "morningglory", "result-type": "Plant response rating, Morningglory", "readout-number": 50}

* * *

- Test system: windgrass
- method: Test C pre-/postemergence test
- Assay type: in vivo, Apera spica-venti
- measurement-conditions: Postemergence, 250 g ai/ha; scale 0 to 100, 0 no effect, 100 complete control
result-type: Plant response rating, Windgrass

{"molecule": "[O-][n+]1cc(Cl)ccc1[S+]([O-])Cc1c(C(F)(F)F)nn(CC(F)(F)F)c1Cl (stereo not shown)", "result-type": "Plant response rating, Windgrass", "readout-number": 98}
{"molecule": "Cn1nc(C(F)(F)F)c(C[S+]([O-])c2cccc[n+]2[O-])c1OCC(F)(F)C(F)(F)F (stereo not shown)", "result-type": "Plant response rating, Windgrass", "readout-number": 100}
{"molecule": "CC(c1c(C(F)(F)F)nn(C)c1OC(F)F)S(=O)(=O)c1cccc[n+]1[O-] (stereo not shown)", "result-type": "Plant response rating, Windgrass", "readout-number": 75}
{"molecule": "Cn1nc(C(F)(F)C(F)(F)F)c(C[S+]([O-])c2cccc[n+]2[O-])c1OCC(F)(F)F (stereo not shown)", "result-type": "Plant response rating, Windgrass", "readout-number": 100}

* * *

- Test system: broadleaf signalgrass
- method: Test F preemergence test
- Type: in vivo, Brachiaria platyphylla
- measurement-conditions: Preemergence; 31 g ai/ha; scale 0 to 100

{"molecule": "Cn1nc(C(F)(F)F)c(C[S+]([O-])c2ccc(Cl)c[n+]2[O-])c1OCC(F)F (centres unmarked) [Compound 85]", "Plant response rating, Signalgrass": 70}
{"molecule": "Cn1nc(C(F)(F)F)c(CS(=O)(=O)c2cccc[n+]2[O-])c1OCC(F)(F)F [Compound 29]", "Plant response rating, Signalgrass": 50}
{"molecule": "CC(c1c(C(F)(F)F)nn(C)c1OC(F)F)S(=O)(=O)c1cccc[n+]1[O-] (centres unmarked) [Compound 5]", "Plant response rating, Signalgrass": 35}
{"molecule": "Cn1nc(C(F)(F)F)c(C[S+]([O-])c2cccc[n+]2[O-])c1Cl (centres unmarked) [Compound 8]", "Plant response rating, Signalgrass": 65}
{"molecule": "Cc1cc[n+]([O-])c(S(=O)(=O)C(C)c2c(C(F)(F)F)nn(C)c2OC(F)F)c1 (centres unmarked) [Compound 11]", "Plant response rating, Signalgrass": 65}
{"molecule": "Cn1nc(C(F)(F)F)c(CS(=O)(=O)c2cccc[n+]2[O-])c1OC(F)F [Compound 4]", "Plant response rating, Signalgrass": 35}
{"molecule": "Cn1nc(C(F)(F)F)c(C[S+]([O-])c2ccc(F)c[n+]2[O-])c1OCC(F)(F)F (centres unmarked) [Compound 67]", "Plant response rating, Signalgrass": 30}
{"molecule": "Cc1cc[n+]([O-])c(S(=O)(=O)C(Cl)c2c(C(F)(F)F)nn(C)c2Cl)c1 (racemic) [Compound 22]", "Plant response rating, Signalgrass": 50}
